Test system: IGROV-1
Test: NCI tumour cell line growth inhibition, 48 h
The source made the active and inactive calls. No stated cut-off is given here; in the data, active = GI50 up to about 1.1 µM and inactive = higher.
Returns: one label drawn from 1 (active), -1 (inactive)

Query :: Please state the recorded outcome for this compound: OCC(O)C(O)C(O)c1nn(-c2ccccc2)c2nc3cc(Cl)c(Cl)cc3nc12 (centres undefined)
Result :: -1

###

Test system: EKVX
Assay: NCI tumour cell line growth inhibition, 48 h
Activity calls are given as the source filed them. Rule as the data show it: active = GI50 up to about 1.1 µM and inactive = higher.
# GI50 listing for each entry below

// worked examples, GI50 included
Query :: Any idea what its GI50 is? The molecule is O=C(O)CCC(=O)N1c2ccccc2CC1c1c[nH]c2ccccc12 (stereo unspecified)
Result :: > 100 µM (inactive)

Query :: Consider next the molecule O=C(c1ccc(Cl)cc1)C(O)c1ccc(Cl)cc1 (stereo unspecified) in the same way.
Result :: 34.2 µM (inactive)

Query :: Again, but for COC(=O)C1=C(C)NC(=O)N2[C@@H](CCOCc3ccccc3)CC[C@@H]12
Result :: > 50 µM (inactive)

Query :: What do we get for CC(C)c1cc2c(c(O)c1O)[C@@]1(C)CCCC(C)(C)C1=C(O)C2 ?
Result :: 1.37 µM (inactive)

Query :: Try the molecule CC(C)(C)c1cc(Oc2ccc(C#N)c(C#N)c2)cc(C(C)(C)C)c1
Result :: > 100 µM (inactive)

Query :: How about Oc1cccc2c(Cl)ccnc12 ?
Result :: 11.7 µM (inactive)

Query :: // repeat for O=C(NO)c1ccc(OCc2cccc(Cl)c2)cc1 and report
Result :: 10.8 µM (inactive)

Query :: Continue with c1ccc(CN[C@]23C4C5CC6C7C5C2C7[C@@](NCc2ccccc2)(C64)N3Cc2ccccc2)cc1 (stereo partly specified)
Result :: > 100 µM (inactive)

Query :: Another: [N-]=[N+]=CC(=O)OC(CCl)CCl
Result :: > 100 µM (inactive)

Query :: Try this molecule too: O=c1c(-c2ccccc2)c(SCCCN2CCN(c3cccc(Cl)c3)CC2)n(-c2ccccc2)c(=S)n1-c1ccccc1
Result :: > 100 µM (inactive)

Now for another entry.
Query :: Which value of GI50 has been reported for C=C1c2nc3ccccc3n2C=C(c2ccc(Cl)cc2)N1c1ccccc1 in the records?
Result :: 14.8 µM (inactive)
